# Target under test: BIR2 domain of XIAP (Homo sapiens, UniProt P98170, C202A/C213G)
# Construct: 6× Histidine-tagged BIR2 domain, corresponding to amino acids 124-240 of XIAP
# Sequence (P98170 with tags, fused parts or gaps C202A/C213G): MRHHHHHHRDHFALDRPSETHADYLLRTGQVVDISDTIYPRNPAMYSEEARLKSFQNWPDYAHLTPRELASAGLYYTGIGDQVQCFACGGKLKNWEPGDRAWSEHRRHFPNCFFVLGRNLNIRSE
# Protocol description: TR-FRET assay for BIR2 (inhibition of binding of XIAP BIR2 domain to SMAC-derived Peptide A)
# Assay conditions: 6x Histidine-tagged BIR2 domain (amino acids 124-240 of XIAP) 10 nM, Peptide A 20 nM
# Description: TR-FRET Assay for BIR2 and BIR3 […] The peptides were labeled with the fluorescent tags FITC or TAMRA and Kd values were determined by fluorescence polarization assay. […] Time-resolved fluorescence resonance energy transfer (TR-FRET) signals were measured 1 hour later at room temperature. Test compound potency was assessed at 10 serially diluted concentrations. Percentage of inhibition at each concentration was determined to generate an IC50 value for each test compound.
Could you please report measured IC50 for the items listed next?
# number only, unit nM dropped from output

# IC50 (compound: `CN[C@@H](C)C(=O)N[C@H](C(=O)N1c2ncccc2C[C@H]1C(=O)Nc1ccccc1)C1CCCCC1` ) is 117

# IC50 (compound: `CN[C@@H](C)C(=O)N[C@H](C(=O)N1c2ncccc2C[C@H]1C(=O)Nc1cccc(C)c1C)C(C)C` ) is 71.1

# IC50 (compound: `CN[C@@H](C)C(=O)N[C@H](C(=O)N1c2ncccc2C[C@H]1C(=O)Nc1c(Cl)cccc1Cl)C(C)C` ) is 16.6
